Value source: patent US12617777B2

- tested_target: human GPR84 receptor (Homo sapiens, UniProt Q9NQS5)
- Construct: host or cells: HEK293, transient transfection
- Sequence (Q9NQS5 whole entry): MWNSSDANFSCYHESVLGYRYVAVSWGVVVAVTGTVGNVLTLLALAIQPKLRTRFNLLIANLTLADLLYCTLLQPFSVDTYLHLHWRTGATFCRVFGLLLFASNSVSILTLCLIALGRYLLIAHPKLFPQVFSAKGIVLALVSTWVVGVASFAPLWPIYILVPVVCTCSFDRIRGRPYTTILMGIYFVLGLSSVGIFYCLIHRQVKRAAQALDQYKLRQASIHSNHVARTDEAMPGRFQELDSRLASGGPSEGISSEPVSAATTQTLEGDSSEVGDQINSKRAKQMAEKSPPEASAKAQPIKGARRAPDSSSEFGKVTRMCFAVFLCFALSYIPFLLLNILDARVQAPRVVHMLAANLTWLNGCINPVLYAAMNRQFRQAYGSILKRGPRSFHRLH
- test: Gαi biosensor BRET assay in HEK293 cells (antagonism of ZQ-16)
- Format: cell-based
- test_context: HEK293 cells, antagonism of 200 nmol/L ZQ-16
Entries and their IC50 values follow.
readout_type: IC50

[[record]]
compound = "CO[C@@H](c1cn(C[C@@H]2CCCCO2)nn1)c1cc(C#CC2CC2)ccc1C"
readout_type = "IC50"
readout_value = "> 2000 nM"

[[record]]
compound = "CC1(C)COC(Cn2cc(-c3ncc(C#CCO)cc3OC3CC3)nn2)OC1"
readout_type = "IC50"
readout_value = "≤ 300 nM"

[[record]]
compound = "Cc1cc(C#CCN2CC(C)(C)C2)ccc1-c1cn(CC2OCC(C)(C)CO2)nn1"
readout_type = "IC50"
readout_value = "≤ 300 nM"

[[record]]
compound = "Cc1ccc(C#CC2CC2)cc1Oc1cn(CC2OCC(C)(C)CO2)nn1"
readout_type = "IC50"
readout_value = "300 to 1000 nM"

[[record]]
compound = "OCC#Cc1ccc(-c2cn(CC3OCC4(CCC4)O3)nn2)c(CC(F)(F)F)c1 (centres unmarked)"
readout_type = "IC50"
readout_value = "300 to 1000 nM"

[[record]]
compound = "Cc1cc(C#CCN2CCN(c3ccccc3)CC2)ccc1-c1cn(CC2CCCCO2)nn1 (centres unmarked) [Compound I-120]"
readout_type = "IC50"
readout_value = "≤ 300 nM"

[[record]]
compound = "COCC#Cc1cnc(-c2cn(CC3OCC4(CC4)CO3)nn2)c(OC2CC2)c1"
readout_type = "IC50"
readout_value = "≤ 300 nM"

[[record]]
compound = "Cc1cc(C#CCNc2ccccc2)ccc1-c1cn(C[C@@H]2CCCCO2)nn1 (stereo in doubt)"
readout_type = "IC50"
readout_value = "1000 to 3000 nM"

[[record]]
compound = "COC(c1cn(CC2CCCCO2)nn1)c1c(C)ccc(C#CC2CC2)c1F (centres unmarked)"
readout_type = "IC50"
readout_value = "300 to 1000 nM"

[[record]]
compound = "Cc1cc(C#CC2CC2)ccc1-c1cn(CC2CCCO2)nn1 (centres unmarked)"
readout_type = "IC50"
readout_value = "> 3000 nM"

[[record]]
compound = "Cc1cc(N2CCN(Cc3cccnc3)CC2)ccc1-c1cn(CC2CCCCO2)nn1 (centres unmarked)"
readout_type = "IC50"
readout_value = "> 3000 nM"

[[record]]
compound = "CCc1cc(C#CCO)ccc1-c1cn(CC2OCC(C)(C)CO2)nn1"
readout_type = "IC50"
readout_value = "≤ 300 nM"

[[record]]
compound = "CC1(C)COC(Cn2cnc(-c3ncc(C#CC4CC4)cc3OC3CC3)c2)OC1"
readout_type = "IC50"
readout_value = "≤ 300 nM"

[[record]]
compound = "Cc1cc(N2CC(C)(C)C2)ccc1-c1cn(C[C@H]2CCCCO2)nn1"
readout_type = "IC50"
readout_value = "≤ 300 nM"

[[record]]
compound = "COCC#Cc1ccc(-c2cn(CC3OCC(C)(C)CO3)nn2)c(N(C)C)c1"
readout_type = "IC50"
readout_value = "≤ 300 nM"

[[record]]
compound = "CN(C)c1cc(N2CC(C)(CO)C2)ccc1-c1cn(CC2CC3(CC3)CO2)nn1 (centres unmarked)"
readout_type = "IC50"
readout_value = "≤ 300 nM"

[[record]]
compound = "CN(C)c1cc(C#CC2CC2)ccc1-c1cn(CC2CCCCO2)nn1 (centres unmarked)"
readout_type = "IC50"
readout_value = "1000 to 3000 nM"

